Data origin, for the record: the RNAGym collection of RNA variant scans (doi:10.1021/acssynbio.7b00057)

B1: Pistol ribozyme (parent)
chain: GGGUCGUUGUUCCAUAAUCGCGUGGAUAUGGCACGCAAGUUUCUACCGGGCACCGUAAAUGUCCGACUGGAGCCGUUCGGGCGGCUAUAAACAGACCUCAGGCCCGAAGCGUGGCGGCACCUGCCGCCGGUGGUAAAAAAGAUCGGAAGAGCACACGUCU

Variants of: B1
METHOD: aptazyme ON/OFF ratio, guanine; higher = stronger switching; co-transcriptional cleavage with and without guanine
READOUT: aptazyme ON/OFF ratio

* U7C C12G C13U | 1.43
* U7G U8C C12U C13G | 1.19
* U7G U10G C12G C13G | 1.07
* U7C U8G G9U U10A U11G C12A C13U | 1.06
* U7C U8G G9A U10G U11G C12A C13A | 1.11
* U7C U8A G9C U11A C12G | 1.12
* U7G U8C G9A U10C U11A C13U | 1.28
* U7C U8A G9C U11C C12G | 1.11
* U7G U8A G9U U11C C12U | 1.19
* U8G G9U U10G U11A C12A C13G | 1.03
* U7G U8C G9C U10A U11A C12U C13A | 1.07
* U7C U8C G9C U10C U11A C12G C13A | 1.11
* G9C U10A U11G C13G | 1.09
* U7C U8C G9C U11A C12G C13A | 1.07
* U7G U8C U10A C12G | 1.29
* U7G G9C U10C U11C C12G C13U | 1.06
* U7G G9A U10G U11A C13G | 1.06
* U7A U8A G9C U10A U11G C13G | 1.11
* U7A U8G G9U U10C U11A C12A | 1.63
* U8A U10G U11C C12G C13A | 1.41
* U7A U10A U11A C12G C13U | 1.25
* U7A U8C U10G U11G C12G C13G | 1.19
* U7G U8A G9U U10C C12U | 1.32
* U7A U8A G9A U10C U11A | 1.22
* U7A U8A G9C U10A U11G C12A | 1.05
* U7A U8A G9U U10G U11G C12U C13G | 1.24
* G9A U10A C12U C13G | 1.24
* U8A U10C U11A C13A | 1.17
* U8A G9A U10A | 1.65
* U10C C13A | 1.06
* U7G U10G C12A | 1.22
* U7C U8C G9C U10A U11G C12A C13G | 1.12
* U7C U8G G9C U10A U11G C12U C13G | 1.12
* U8C U10A U11C C12G | 1.17
* G9U U10C U11G C12U C13U | 1.41
* U7A U8A U10G U11C C13G | 1.11
* U8A U11G C12U C13U | 1.11
* U7A U8G G9U U10G U11C C13G | 1.07
* U7C U8C G9U U10G U11A C12U | 1.17
* U7A G9C U10A U11G C12G C13A | 1.06
* U7C U8A U11C C13A | 1.1
* U8G G9A U10C U11A C13A | 1.1
* U8C U10C U11G C12G C13G | 1.15
* U7G G9U U10A U11G C12G C13G | 1.14
* U7C U8G U10A C12A C13A | 1.16
* U7C U10C U11A C12U C13A | 1.28
